Molecular target: GPR84 (Homo sapiens, UniProt Q9NQS5)
Sequence (Q9NQS5 whole entry): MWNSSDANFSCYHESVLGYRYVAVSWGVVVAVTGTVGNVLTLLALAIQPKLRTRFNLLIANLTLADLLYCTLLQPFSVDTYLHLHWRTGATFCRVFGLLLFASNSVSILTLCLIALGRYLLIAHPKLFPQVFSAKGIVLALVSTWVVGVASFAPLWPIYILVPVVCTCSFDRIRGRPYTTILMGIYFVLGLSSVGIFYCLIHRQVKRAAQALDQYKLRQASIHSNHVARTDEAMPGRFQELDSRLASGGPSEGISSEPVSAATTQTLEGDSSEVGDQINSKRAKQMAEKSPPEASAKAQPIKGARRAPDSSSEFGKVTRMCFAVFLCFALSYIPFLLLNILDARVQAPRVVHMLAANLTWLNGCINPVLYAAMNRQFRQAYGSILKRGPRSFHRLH
Assay: PRESTO-Tango β-arrestin2 recruitment assay, GPR84 antagonistic activity
Conditions: antagonist activity in the Presto-TANGO assay; inhibition of the response from the agonist ZQ-16 (100 nM); HTLA cells
Counter-ions that a name gives are not always drawn.
The entries below are paired with their reported IC50.
The response must be a number in nM with no trailing unit.

Use the examples below as a reference point.
- compound: "CCCc1ccc(CCc2nc(OCC3CCCCO3)cc(O)c2-c2ccc(OCC(=O)O)cc2)cc1 (stereo not drawn)"
  display-unit: "nM"
  IC50: 93.3
- compound: "CCc1c(O)cc(OC[C@@H]2COCCO2)nc1CCCCc1ccccc1"
  display-unit: "nM"
  IC50: 23.4
- compound: "Cc1c(O)cc(OCC2COCCO2)nc1CCc1ccc(OCCN)cc1 (stereo not drawn)"
  display-unit: "nM"
  IC50: 16.2
- compound: "CCc1c(O)cc(OC[C@@H]2COCCO2)nc1CCc1ccc(OC)cc1OC"
  display-unit: "nM"
  IC50: 0.355

Tested on GPR84 (Homo sapiens, UniProt Q9NQS5), the item CCc1c(O)cc(OCC2COCCO2)nc1CCc1ccc(OCCN)cc1 (stereo not drawn) [Example 45, hydrochloride] showed IC50 equal to 2.34

For CCCc1ccc(CCc2nc(OCC3CCCCO3)cc(O)c2CCC)cc1 (stereo not drawn) on GPR84 (Homo sapiens, UniProt Q9NQS5), measured IC50 was 6.61

* * *

# IC50 per entry
Molecular target: GPR84 (Homo sapiens)
Assay: PRESTO-Tango β-arrestin2 recruitment assay, GPR84 antagonistic activity
Details: antagonist activity in the Presto-TANGO assay; inhibition of the response from the agonist ZQ-16 (100 nM); HTLA cells
Could you kindly put the unit after your number?

- compound: "Cc1c(O)cc(OCC2COCCO2)nc1CCc1ccc(OCC(=O)O)cc1 (centres unmarked)"
  assay-system: "GPR84 (Homo sapiens)"
  endpoint: "IC50"
  result: "1290 nM"

CCc1c(O)cc(OCC2COCCO2)nc1CCc1ccc(OCC(N)=O)cc1 (centres unmarked) yielded IC50 of 2.88 nM

IC50 reading for CCc1c(O)cc(OCC2COCCO2)nc1CCc1ccc(OCCO)cc1 (centres unmarked) : 0.741 nM

The recorded IC50 for entry CCOC(=O)CCCCOc1ccc(CCc2nc(OCC3COCCO3)cc(O)c2CC)cc1 (centres unmarked) equals 0.257 nM

Cc1c(O)cc(OCC2COCCO2)nc1CCc1ccc(OCCNC(=O)OC(C)(C)C)cc1 (centres unmarked) has a reported IC50 of 0.282 nM

* * *

Measured IC50, listed per entry for reference.
Molecular target: GPR84 (Homo sapiens)
Experiment: PRESTO-Tango β-arrestin2 recruitment assay, GPR84 antagonistic activity
Conditions: antagonist activity in the Presto-TANGO assay; inhibition of the response from the agonist ZQ-16 (100 nM); HTLA cells
// note: answer is a bare numeric in nM

Please review the following examples before continuing.
- compound: "CCOc1ccc(C2CC2c2nc(OCC3COCCO3)cc(O)c2CC)cc1 (stereo not drawn)"
  numeric-result: 87.1
- compound: "CCCc1ccc(CCc2nc(OCC3CCCCO3)cc(O)c2-c2ccccc2C)cc1 (stereo not drawn)"
  numeric-result: 389
- compound: "CCc1c(O)cc(OCC2COCCO2)nc1CCc1ccc(OCCN2C(=O)c3ccccc3C2=O)cc1 (stereo not drawn)"
  numeric-result: 0.977

compound CCCc1ccc(CCc2nc(OCC3CCCCO3)cc(O)c2-c2ccc(CC)cc2)cc1 (stereo not drawn) , IC50 observed: 70.8

The reported IC50 of the compound CCCc1ccc(CCc2nc(OCC3CCCCO3)cc(O)c2-c2ccc(C(=O)OC)cc2)cc1 (stereo not drawn) was 145

Data point: CC(=O)NCCOc1ccc(CCc2nc(OCC3COCCO3)cc(O)c2C)cc1 (stereo not drawn) ; IC50 = 17.8
